B1: LINE1-full (parent)
chain: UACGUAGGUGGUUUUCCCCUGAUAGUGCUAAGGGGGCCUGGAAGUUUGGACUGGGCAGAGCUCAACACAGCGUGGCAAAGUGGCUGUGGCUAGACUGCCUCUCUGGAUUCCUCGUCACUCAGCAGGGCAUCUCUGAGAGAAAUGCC

Variants of: B1
Method summary: self-cleavage, relative activity (ratio to wild type); higher = more cleavage; in vitro, sequencing; the parent is a self-cleaving ribozyme
Just so you know, the groups by self-cleavage go like this: bottom end: < 0.3; midrange: ≥ 0.3 and < 1; top end: ≥ 1

Mutant label: U115A U132C
Category: top end
//
Mutant label: A50G G82A
Category: top end
//
Mutant label: C99U A141C
Category: midrange
//
Mutant label: U46A A57G
Category: midrange
//
Mutant label: U14C C19U
Category: midrange
//
Mutant label: A64U U102C
Category: midrange
//
Mutant label: U109C U134A
Category: bottom end
//
Mutant label: U14A G72U
Category: top end
//
Mutant label: G35A A65G
Category: bottom end
//
Mutant label: G88A A141G
Category: bottom end
//
Mutant label: G8A U134C
Category: top end

// provenance: the RNAGym collection of RNA variant scans (doi:10.7554/elife.90254)
